# target.entity: CbuqPBP1 (Cyrtotrachelus buqueti, UniProt A0A1B3IIF7)
# Sequence (A0A1B3IIF7 17-143): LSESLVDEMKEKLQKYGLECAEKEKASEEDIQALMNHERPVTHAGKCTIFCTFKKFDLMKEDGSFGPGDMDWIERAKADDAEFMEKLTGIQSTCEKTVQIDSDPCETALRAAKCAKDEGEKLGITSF
property.measured: Kd (µM)
Expressed in µM, but write only the number.

Complete the entry with Kd for c1ccc(Nc2cccc3ccccc23)cc1 [1-NPN]
2.73

----------
# target.entity: CbuqPBP1 (Cyrtotrachelus buqueti, UniProt A0A1B3IIF7, F69A)
# Construct: E. coli BL21(DE3), pET-28a(+); His-tag cut with enterokinase; about 400 bp insert, 16 kDa
# Sequence (A0A1B3IIF7 17-143 F69A): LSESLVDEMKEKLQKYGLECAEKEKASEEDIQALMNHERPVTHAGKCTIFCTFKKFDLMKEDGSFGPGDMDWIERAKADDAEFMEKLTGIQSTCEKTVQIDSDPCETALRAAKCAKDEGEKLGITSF
# measurement.description: fluorescence titration, Scatchard plot
property.measured: Kd (µM)
State the answer as a number, implicitly in µM.

Please give measured Kd of the following entry: "c1ccc(Nc2cccc3ccccc23)cc1"
2.26
